# STUDY_SYSTEM: Cytochrome P450 2C19 (Homo sapiens)
# EXPERIMENT_NOTES: Cytochrome P450 Family 2 Subfamily C Member 19 (CYP2C19) small molecule antagonists: luciferase reporter qHTS assay (AID 1671197); further: nearly all actives have a fitted effect of over 65% in size
# RUN_PARAMETERS: P450-Glo CYP2C19 enzyme, luciferin luminescence, 1 h; series mostly up to 115 µM
Inconclusive results are not listed. Calls of active or inactive are those of the source. The call rests on the fitted dose curve; in most records, active means well fitted inhibition curve with a large enough effect in the repeat runs; inconclusive means weak or mixed curves; inactive means no such curve, though single readings can be large or run the other way.
I would appreciate it if you answered using one of these outcomes: active, inactive

Q: Outcome? [Cl][Sn]([c]1ccccc1)([c]1ccccc1)[c]1ccccc1
Result: active

Q: Outcome? O=S(=O)(c1ccc(Cl)cc1)c1ccc(Cl)cc1
Result: active

Q: Outcome? O=[N+]([O-])c1cc(Cl)ccc1Cl
Result: inactive

Q: Outcome? C[C@]12CC[C@@H]3c4ccc(OC(=O)N(CCCl)CCCl)cc4CC[C@H]3[C@@H]1CC[C@@H]2O
Result: inactive

Q: Outcome? O=[N+]([O-])c1c2ccccc2cc2ccccc12
Result: active

Q: Outcome? CC(C)(C)OO
Result: inactive

Q: Outcome? ClCCN1CCOCC1
Result: inactive

Q: Outcome? Oc1ccc(C(=C(Cl)Cl)c2ccc(O)cc2)cc1
Result: active

Q: Outcome? c1ccc2c(c1)OCC(C1=NCCN1)O2 (stereo unspecified)
Result: inactive

Q: Outcome? CC(C)(C)C(O)/C(=C\c1ccc(Cl)cc1Cl)n1cncn1 (stereo unspecified)
Result: active

Q: Outcome? Clc1ccc(C(Cl)(Cl)Cl)c(Cl)c1
Result: active

Q: Outcome? CCC(C)c1cc(C(C)(C)C)cc(-n2nc3ccccc3n2)c1O (stereo unspecified)
Result: inactive

Q: Outcome? CCCCCCCCCCCCBr
Result: inactive

Q: Outcome? COc1cccc(C(=O)CCN[C@@H](C)[C@H](O)c2ccccc2)c1
Result: active

Q: Outcome? O=C1NCN(c2ccccc2)C12CCN(CC1COc3ccccc3O1)CC2 (stereo unspecified)
Result: active

Q: Outcome? COC(=O)N(C(=O)N1COC2(C(=O)OC)Cc3cc(Cl)ccc3C2=N1)c1ccc(OC(F)(F)F)cc1 (stereo unspecified)
Result: active

----------
# STUDY_SYSTEM: Luciferin 4-monooxygenase (Photinus pyralis)
# EXPERIMENT_NOTES: qHTS assay to identify small molecule inhibitors of firefly luciferase (AID 1224835); further: nearly all actives have a fitted effect of over 25% in size
# RUN_PARAMETERS: purified P. pyralis luciferase, luminescence inhibition; series mostly up to 115 µM
Records with an inconclusive call do not appear. The source made the active and inactive calls. Calls follow the shape of the dose curve; as a rule, active = well fitted inhibition curve with a large enough effect in the repeat runs; inconclusive = weak or mixed curves; inactive = flat fitted curve, though single readings scatter.
I would appreciate it if you answered using one of these outcomes: y = active, n = inactive

Q: Outcome? CN(CCCC(=O)c1cccnc1)N=O
Result: n

Q: Outcome? Cn1[nH]nnc1=S
Result: y

Q: Outcome? CCCN(CCC)CCc1c[nH]c2ccccc12
Result: n

----------
# STUDY_SYSTEM: Acetylcholinesterase (Homo sapiens) (UniProt P22303)
# Sequence (P22303 whole entry, looked up): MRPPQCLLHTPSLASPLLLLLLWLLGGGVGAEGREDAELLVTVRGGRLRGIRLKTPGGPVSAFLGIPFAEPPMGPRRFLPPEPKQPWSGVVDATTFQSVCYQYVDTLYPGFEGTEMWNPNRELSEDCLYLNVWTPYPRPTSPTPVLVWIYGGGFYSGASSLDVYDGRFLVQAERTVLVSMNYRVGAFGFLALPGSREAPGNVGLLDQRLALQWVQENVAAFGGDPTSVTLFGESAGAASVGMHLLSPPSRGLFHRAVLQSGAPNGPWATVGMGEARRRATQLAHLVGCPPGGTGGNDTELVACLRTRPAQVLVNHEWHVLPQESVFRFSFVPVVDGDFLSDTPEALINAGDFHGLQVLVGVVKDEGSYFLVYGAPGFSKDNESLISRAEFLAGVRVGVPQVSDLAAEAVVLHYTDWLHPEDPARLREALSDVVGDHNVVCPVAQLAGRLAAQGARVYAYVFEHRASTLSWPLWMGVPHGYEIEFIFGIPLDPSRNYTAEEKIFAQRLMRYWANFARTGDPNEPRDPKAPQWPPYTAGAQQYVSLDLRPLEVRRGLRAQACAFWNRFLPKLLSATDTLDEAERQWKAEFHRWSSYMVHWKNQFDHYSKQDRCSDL
# EXPERIMENT_NOTES: Acetylcholinesterase (AChE) small molecule antagonists: enzyme-based qHTS assay with human liver microsomes (AID 1347399); further: nearly all actives have a fitted effect of over 60% in size
# RUN_PARAMETERS: qHTS inhibition; series mostly up to 115 µM
The source made the active and inactive calls. Calls follow the shape of the full dose curve.
I would appreciate it if you answered using one of these outcomes: true = active, false = inactive

Q: Outcome? Fc1cccc(Cl)c1CCl
Result: false

Q: Outcome? CCCCN(CCCC)C(=S)[S-].CCCCN(CCCC)C(=S)[S-].[Zn+2]
Result: false

Q: Outcome? CCCN(CC)CC1COC2(CCC(C(C)(C)C)CC2)O1 (centres undefined)
Result: false

Q: Outcome? CCc1ccccc1C
Result: false

Q: Outcome? ClC1=C(Cl)[C@]2(Cl)[C@H]3[C@H]([C@H]4C=C[C@H]3C4)[C@@]1(Cl)C2(Cl)Cl
Result: false

Q: Outcome? O=C(CCCN1CCC2(CC1)C(=O)NCN2c1ccccc1)c1ccc(F)cc1
Result: false

Q: Outcome? CC(Cc1ccc(C(C)(C)C)cc1)CN1C[C@@H](C)O[C@@H](C)C1 (some centres undefined)
Result: false

Q: Outcome? C[C@]12CC[C@@H]3c4ccc(OC(=O)N(CCCl)CCCl)cc4CC[C@H]3[C@@H]1CC[C@@H]2O
Result: false

Q: Outcome? CN(CCCC(=O)c1cccnc1)N=O
Result: false

Q: Outcome? C[C@H]1CC[C@@H]2[C@@H](C)[C@H]3[C@H](C[C@H]4[C@@H]5CC=C6CC(O[C@@H]7O[C@H](CO)[C@H](O)[C@H](O[C@@H]8O[C@H](CO)[C@@H](O)[C@H](O)[C@H]8O)[C@H]7O[C@H]7O[C@@H](C)[C@H](O)[C@@H](O)[C@H]7O)CC[C@]6(C)[C@H]5CC[C@]34C)N2C1 (some centres undefined)
Result: false

Q: Outcome? CC(C)[C@H](C(=O)OC(C#N)c1cccc(Oc2ccccc2)c1)c1ccc(OC(F)F)cc1 (some centres undefined)
Result: false

Q: Outcome? COP(=O)(OC)SCn1c(=O)oc2cc(Cl)cnc21
Result: true

Q: Outcome? ClCc1ccc(Cl)cc1Cl
Result: false

Q: Outcome? c1ccc(Nc2ccc3ccccc3c2)cc1
Result: false

Q: Outcome? CC(C)CC(C)N (centres undefined)
Result: false

Q: Outcome? FC(Cl)(Cl)Cl
Result: false

Q: Outcome? Cc1ccc(C(=O)Cl)cc1
Result: false

Q: Outcome? ClCCN1CCOCC1
Result: false

Q: Outcome? O=C(CBr)c1ccc(O)cc1
Result: false

Q: Outcome? C[C@]12Cc3nonc3C[C@@H]1CC[C@@H]1[C@@H]2CC[C@@]2(C)[C@H]1CC[C@]2(C)O
Result: false

Q: Outcome? O=C1C=CC(=O)c2ccccc21
Result: false

Q: Outcome? Cc1cc(C(F)(C(F)(F)F)C(F)(F)F)ccc1NC(=O)c1cccc(I)c1C(=O)NC(C)(C)CS(C)(=O)=O
Result: false

Q: Outcome? O=[N+]([O-])c1cc(C(F)(F)F)c(Cl)c([N+](=O)[O-])c1Cl
Result: false

Q: Outcome? CCSC(C)CC1CC(=O)C(/C(CC)=N/OC/C=C/Cl)=C(O)C1 (centres undefined)
Result: false

Q: Outcome? ClC(Cl)=C(Cl)Cl
Result: false

Q: Outcome? CCCCCCCCCCCCCCC(Br)C(=O)O (centres undefined)
Result: false

Q: Outcome? Oc1c(Cl)c(Cl)cc(Cl)c1Cl
Result: false

Q: Outcome? BrCBr
Result: false

Q: Outcome? COP(=O)(CCC(=O)NCO)OC
Result: false

Q: Outcome? C1CCC2CCCCC2C1 (centres undefined)
Result: false

Q: Outcome? CC(C)C1CCC(Cc2ccc(Cl)cc2)C1(O)Cn1cncn1 (centres undefined)
Result: false

Q: Outcome? COP(=S)(OC)Oc1cc(Cl)c(Br)cc1Cl
Result: false

Q: Outcome? Clc1ccc(-c2ccc(Cl)c(Cl)c2Cl)c(Cl)c1Cl
Result: false

Q: Outcome? BrC(Br)Br
Result: false
